B1: Pistol ribozyme (parent)
chain: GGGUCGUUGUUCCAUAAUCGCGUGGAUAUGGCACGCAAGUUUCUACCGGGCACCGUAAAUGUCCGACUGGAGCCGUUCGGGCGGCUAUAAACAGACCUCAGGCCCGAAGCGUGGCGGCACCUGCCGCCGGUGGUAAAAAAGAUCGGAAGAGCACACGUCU

Variants of: B1
run-description: aptazyme ON/OFF ratio, guanine; higher = stronger switching; co-transcriptional cleavage with and without guanine
metric-name: aptazyme ON/OFF ratio
One number for each entry.

Worked cases, answers included:
>>> df
           variant_description            metric_name  assay_value
0   U7G U8A G9A U10G U11G C13G  aptazyme ON/OFF ratio         1.34
1                  U7A U8C G9U  aptazyme ON/OFF ratio         1.94
2  U7A U8C U10C U11A C12G C13G  aptazyme ON/OFF ratio         1.22
3  U7C U8C U10C U11C C12A C13A  aptazyme ON/OFF ratio         1.34
4                 U7G G9U U11C  aptazyme ON/OFF ratio         4.69

Return reported aptazyme ON/OFF ratio values for all items listed beneath this line.
1. U8A U10A U11G C12A C13G
2. U8G G9A U10A U11C C12U C13A
3. U7C G9U C12A
4. U7G U8G U10G U11C C12G C13A

[reply]
1. 1.3
2. 1.18
3. 1.13
4. 1.29

Hey, quick one: what's aptazyme ON/OFF ratio for each of these?
1. U7G U8A G9C U11G C12U C13U
2. U7C G9C U10A U11C C13U
3. U7G U8C U10C U11C C13U
4. U8G G9U U10C U11G C13U
5. U7A U8G G9A U10A U11C C12A C13A

[reply]
1.19
1.02
1.07
1.03
1.32

Each of the following entries comes with a recorded value; kindly state aptazyme ON/OFF ratio for each.
1. U7C U8A U10A C12G C13U
2. U7C G9C C13G
3. U7A U8C G9C U10A C12U C13U
4. U7G G9A U11A C12G C13U
5. U8C U10A U11A C12U C13U
6. U8G G9C C12U
7. U7C G9U U10A U11G C12G
8. U7A U8A G9A U10C U11C C13A

[reply]
1: 1.26; 2: 1.05; 3: 1.07; 4: 1.12; 5: 1.26; 6: 1.07; 7: 1.19; 8: 1.01

Could you tell me aptazyme ON/OFF ratio for each of these variants? They are listed below.
1. U7A U8C G9C U10A U11A C12U C13U
2. U7A U8G G9C U10G C12A
3. U7G U8G G9U U10C U11A C12U C13G
4. U7A G9A C12G
5. U7C U8C G9A U11C C12U C13G

[reply]
[1.05, 1.27, 1.37, 2.38, 1.08]

Batch request: aptazyme ON/OFF ratio for each of the following variants.
1. U8A G9U U10A U11G C13U
2. U7G U8A U11A C13G
3. U7A G9C U10G U11A C12A C13U
4. U7G U8G C13G
5. U8G U10G U11A C12A C13A
6. U8G G9C U10A U11G C13A

[reply]
1.25
1.15
1.07
1.42
1.18
1.08

Provide each entry's aptazyme ON/OFF ratio from the list below.
1. U7A U8C U11C C13A
2. U7A U8A U10G U11A C12G C13G
3. U7C U10A C12G C13U
4. U7C U8G G9A U10G U11A C12U
5. U8A G9C U10A U11C C12G
6. U7A G9U U10G C12U C13U

[reply]
1.19
1.16
1.23
1.16
1.1
1.87

# per-item lookup of aptazyme ON/OFF ratio; items listed below
1. U7A U8G G9U U10C C12G C13A
2. U8C G9U
3. G9U U10A C12U C13G
4. U7C U8G U10G U11A C12U C13A
5. U7G U8C G9A U10A U11C C12U C13U
6. U8A G9U U10G U11C C12A C13U
7. U7G U8A G9A U10A U11A C12A C13U

[reply]
[1.39, 2.46, 1.1, 1.23, 1.16, 1.15, 1.12]
